# credit: paper PMC9352467

# assay.remarks: Plasma pharmacokinetic studies
# Format: in vivo, Sprague-Dawley (SD) rats
# assay.context: male, Sprague-Dawley, rat, po, 3 mg/kg
readout.name: Tmax (min)
Give bare numbers, in min.

Item: NS(=O)(=O)OC[C@@H]1C[C@@H](n2ccc3c(N[C@H]4CCc5ccccc54)ncnc32)C[C@@H]1O | Tmax: 55.2

###

# Test system: LNCaP
# assay.remarks: Cell viability assay
# Format: cell-based
# assay.context: Homo sapiens, 72 h, read-out: IC50 (mean ± SD)
readout.name: pIC50
Numbers only, as −log10 of the molar value.

The compound NS(=O)(=O)OC[C@@H]1C[C@@H](n2ccc3c(N[C@H]4CCc5ccccc54)ncnc32)C[C@@H]1O [MLN4924] , tested on LNCaP, showed pIC50 of 7.28
